Tested on: erythrocytic forms of P. falciparum (strain 3D7)
Experiment: Viability screening of antiplasmodial activity (SYBR-gold DNA quantification, 96 h)
Assay type: cell-based, Plasmodium falciparum
Stated conditions: Plasmodium falciparum, 96 h; 3 µM; strain 3D7; calculated on DMSO controls; read-out: Parasitemia (3D7) at 3 µM [%]
This section presents compounds with their documented activity at 3 µM values.
Write it as a number; the unit % goes unstated.

A selection of reference data follows.
N#Cc1c(N)nc2sc(C(=O)Nc3cccc(Cl)c3)c(N)c2c1-c1ccc(N2CCCC2)cc1Cl [Compound 9s] ... 4.8
CN(CCNC(=O)OC(C)(C)C)c1ccc(-c2c(C#N)c(N)nc3sc(C(=O)Nc4cccc(Cl)c4)c(N)c23)c(Cl)c1 [Compound 9w] ... 3.6
N#Cc1c(N)nc2sc(C(=O)Nc3ccc(F)cc3)c(N)c2c1-c1ccc(N2CCOCC2)cc1Cl [Compound 9x] ... 8.7
N#Cc1c(N)nc2sc(C(=O)Nc3cccc(Cl)c3)c(N)c2c1-c1ccc(N2CCNCC2)cc1Cl [Compound 9q] ... 4.9
N#Cc1c(N)nc2sc(C(=O)Nc3ccc(F)cc3)c(N)c2c1-c1ccc(N2CCCC2)cc1Cl [Compound 9aa] ... 5.3

Please turn your attention to the following entry.
Q: Quick one: activity at 3 µM of N#Cc1c(N)nc2sc(C(=O)Nc3ccc(Cl)cc3)c(N)c2c1-c1cccc(F)c1 [Compound 9h] ?
A: 3.9

* * *

Target: rPfGSK-3 (Plasmodium falciparum)
Sequence (O77344 entry or part of it): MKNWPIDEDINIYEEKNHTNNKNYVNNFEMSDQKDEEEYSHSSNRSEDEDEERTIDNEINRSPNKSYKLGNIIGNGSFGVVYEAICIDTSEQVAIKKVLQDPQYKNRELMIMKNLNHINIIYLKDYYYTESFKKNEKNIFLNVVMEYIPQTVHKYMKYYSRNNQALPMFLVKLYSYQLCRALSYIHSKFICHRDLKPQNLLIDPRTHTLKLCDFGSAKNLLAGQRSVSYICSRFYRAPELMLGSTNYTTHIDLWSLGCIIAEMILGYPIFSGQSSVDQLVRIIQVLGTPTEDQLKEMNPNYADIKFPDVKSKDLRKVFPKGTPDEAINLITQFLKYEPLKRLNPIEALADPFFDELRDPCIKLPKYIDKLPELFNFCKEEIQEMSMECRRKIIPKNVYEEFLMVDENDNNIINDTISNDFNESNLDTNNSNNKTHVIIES
Experiment: KinaseGlo Plus assay for inhibition of PfGSK-3
Type: biochemical
Stated conditions: 10 µM; remaining activity, calculated on DMSO controls; Table 3; read-out: rPfGSK-3 Activity at 10 µM [%]
Result type: remaining activity at 10 µM (%)
Give the value, in units of %, as a plain number.

Solved entries (count: 5):
N#Cc1c(N)nc2sc(C(=O)Nc3ccccc3Cl)c(N)c2c1-c1ccc(N2CCCC2)cc1Cl ... 105
Cc1cccc(-c2c(C#N)c(N)nc3sc(C(=O)Nc4ccccc4Cl)c(N)c23)c1 ... 90.9
N#Cc1c(N)nc2sc(C(=O)Nc3ccccc3Cl)c(N)c2c1-c1cccc(F)c1 ... 102
N#Cc1c(N)nc2sc(C(=O)Nc3ccc(F)cc3)c(N)c2c1-c1ccc(N2CCOCC2)cc1Cl ... 90.2
CN(CCNC(=O)OC(C)(C)C)c1ccc(-c2c(C#N)c(N)nc3sc(C(=O)Nc4cccc(Cl)c4)c(N)c23)c(Cl)c1 ... 95.3

Q: Requested field: remaining activity at 10 µM. Item: `Cc1cccc(-c2c(C#N)c(N)nc3sc(C(=O)Nc4ccc(F)cc4)c(N)c23)c1`
A: 74.8

Q: Please look up its remaining activity at 10 µM: `CN(CCNC(=O)OC(C)(C)C)c1ccc(-c2c(C#N)c(N)nc3sc(C(=O)Nc4ccc(Cl)cc4)c(N)c23)c(Cl)c1`
A: 110

Q: I am curious: what remaining activity at 10 µM value has been reported for `N#Cc1c(N)nc2sc(C(=O)Nc3ccccc3Cl)c(N)c2c1-c1cccc(Cl)c1` ?
A: 99

Q: Looking for the measured remaining activity at 10 µM of `Cc1cccc(-c2c(C#N)c(N)nc3sc(C(=O)NC(C)C)c(N)c23)c1` , can you help?
A: 54.1

Q: # get_value(readout='remaining activity at 10 µM', item= Cc1cc(-c2ccc(N3CCN(C(=O)OC(C)(C)C)CC3)cc2Cl)c2c(N)c(C(=O)Nc3ccc(Cl)cc3)sc2n1 [Compound 17l] )
A: 103

Values from paper PMC7397174
